Just for reference, patent US10570156B2 is where these values come from.

TARGET_OR_SYSTEM: recombinant human PDE-10 enzyme (Homo sapiens (Human), UniProt Q9Y233)
Sequence (Q9Y233 whole entry): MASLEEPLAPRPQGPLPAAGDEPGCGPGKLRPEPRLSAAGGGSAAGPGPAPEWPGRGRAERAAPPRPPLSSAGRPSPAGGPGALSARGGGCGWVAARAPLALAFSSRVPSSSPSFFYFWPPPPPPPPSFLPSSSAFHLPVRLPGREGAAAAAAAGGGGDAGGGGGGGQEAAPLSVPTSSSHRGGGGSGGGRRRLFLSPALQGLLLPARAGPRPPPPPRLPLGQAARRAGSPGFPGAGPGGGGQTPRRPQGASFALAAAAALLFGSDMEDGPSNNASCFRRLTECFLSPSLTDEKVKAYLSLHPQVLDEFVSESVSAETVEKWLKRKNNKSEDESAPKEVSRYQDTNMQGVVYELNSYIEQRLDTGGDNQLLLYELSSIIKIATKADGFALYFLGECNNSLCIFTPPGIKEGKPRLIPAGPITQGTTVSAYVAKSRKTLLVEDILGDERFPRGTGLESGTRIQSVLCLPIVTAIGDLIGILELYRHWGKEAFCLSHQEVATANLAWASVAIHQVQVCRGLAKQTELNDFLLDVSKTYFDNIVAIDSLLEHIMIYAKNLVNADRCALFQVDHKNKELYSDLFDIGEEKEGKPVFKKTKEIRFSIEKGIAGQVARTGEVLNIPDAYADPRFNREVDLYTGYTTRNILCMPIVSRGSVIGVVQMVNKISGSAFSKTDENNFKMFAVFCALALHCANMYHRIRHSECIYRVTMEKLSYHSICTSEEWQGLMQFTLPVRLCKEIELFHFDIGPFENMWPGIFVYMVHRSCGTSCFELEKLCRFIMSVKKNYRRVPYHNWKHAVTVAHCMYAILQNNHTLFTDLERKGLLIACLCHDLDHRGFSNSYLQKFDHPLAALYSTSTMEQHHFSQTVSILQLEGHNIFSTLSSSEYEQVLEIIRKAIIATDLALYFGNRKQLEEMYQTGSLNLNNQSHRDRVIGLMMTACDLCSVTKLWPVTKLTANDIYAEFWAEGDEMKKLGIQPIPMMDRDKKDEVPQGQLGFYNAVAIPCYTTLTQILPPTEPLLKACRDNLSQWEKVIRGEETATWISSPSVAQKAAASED
TEST_DETAILS: human PDE-10 inhibition assay (IMAP PDE Fluorescence Polarization enzyme assay)
APPLIED_CONDITIONS: Fluorescein-labeled cAMP/cGMP substrate, 40-minute incubation at 37° C.
pIC50: −log10 of the molar value.
READOUT_KIND: pIC50

Using the record for "Cc1ncc(C)n2nc(CCc3nc4c(C)ncc(C)n4n3)nc12" , state its measured pIC50. < 6.30
